The reader will find reported one-nucleolus phenotype percent effect values listed item by item below.
Test system: MCF10A
Test: one-nucleolus phenotype percent effect (relative to siNT 0% and siNOL11 100%); higher = more cells with one nucleolus (ribosome biogenesis inhibition)
Settings: 20 nM; 72 h
Give just the number in %; leave the unit off.

For orientation, consider the following solved cases.
INSERT INTO results (entrysequence, targetundertest, parametermeasured, recordedresult) VALUES
  ('UCCUUUGCCUAUUCUAUUUAAG [hsa-miR-3121-5p]', 'MCF10A', 'one-nucleolus phenotype percent effect', -3.46),
  ('CACACAGGAAAAGCGGGGCCCUG [hsa-miR-6768-5p]', 'MCF10A', 'one-nucleolus phenotype percent effect', -20.7),
  ('AGGCCAUCAGCAGUCCAAUGAA [hsa-miR-4529-5p]', 'MCF10A', 'one-nucleolus phenotype percent effect', 2.62),
  ('UCAGGGAGUCAGGGGAGGGC [hsa-miR-4270]', 'MCF10A', 'one-nucleolus phenotype percent effect', 36.8),
  ('GUGUGCGGAAAUGCUUCUGCUA [hsa-miR-147b]', 'MCF10A', 'one-nucleolus phenotype percent effect', -12.4);

Note: attention shifts to another entry.
Report one-nucleolus phenotype percent effect from MCF10A testing of UAUGGUACUCCUUAAGCUAAC [hsa-miR-5579-5p] -26.5
